// provenance: patent US11976083B2

- tested-on: human PAD4 (Homo sapiens)
- Construct: human PAD4 (NM_012387), A2-P663, was PCR amplified; His-SUMO (N, cleaved yes); made in house; host or cells: E. coli BL21(DE3)
- assay-info: In vitro PAD4 BAEE biochemical assay
- protocol-conditions: BAEE substrate 3 mM, 5 nM PAD4, 2 mM calcium chloride; geometric mean of multiple experiments
reported-endpoint: pIC50
The value called pIC50 is obtained by taking minus log10 of the concentration in mol/L.

pIC50 reading for CO[C@@H]1CCN(C(=O)c2cc(F)c3c(c2)nc(-c2cc4ccc5nc4n2CCCCCC[C@](F)(c2cccc(Cl)n2)C(=O)N[C@@H]5C)n3C2CC2)C[C@@H]1N [Example 876] : 6.91

pIC50 reading for CO[C@@H]1CCN(C(=O)c2cc(F)c3c(c2)nc(-c2cc4ccc5nc4n2CCCCCc2nc4ccsc4cc2C(=O)N[C@@H]5C)n3C2CC2)C[C@@H]1N [Example 797] : 7.80

pIC50 reading for COc1cc(C(=O)N2C[C@H](N)[C@@H]3CC[C@H]2C3)cc2nc(-c3cc4ccc5nc4n3CCCCCOC3(CC3)C(=O)N[C@@H]5C)n(C3CC3)c12 [Example 904] : 7.00

---

Please respond with reported pIC50 for every item in the list.
- tested-on: human PAD4 (Homo sapiens)
- Construct: human PAD4 (NM_012387), A2-P663, was PCR amplified; His-SUMO (N, cleaved yes)
- assay-info: In vitro PAD4 BAEE biochemical assay
- protocol-conditions: BAEE substrate 3 mM, 5 nM PAD4, 2 mM calcium chloride; geometric mean of multiple experiments
The value called pIC50 is obtained by taking minus log10 of the concentration in mol/L.

pIC50 reading for COc1cc(C(=O)N2CC[C@@H](C(F)(F)F)[C@@H](N)C2)cc2nc(-c3cc4ccc5nc4n3CCCCCCC(C)(C)C(=O)N[C@@H]5C)n(C)c12 [Example 192] : 5.17

pIC50 reading for COc1cc(C(=O)N[C@H]2CNCC[C@@H]2F)cc2nc(-c3cc4ccc5nc4n3C[C@H]3C[C@H]3CCCC(C)(C)C(=O)N[C@@H]5C)n(C)c12 [Example 367] : 7.09

pIC50 reading for COc1cc(C(=O)N2[C@H]3CC[C@@H]2[C@H](N)C3)cc2nc(-c3cc4ccc5nc4n3CCCCCCCCC(=O)N5C)c(C)n12 [Example 127] : 7.51

pIC50 reading for COc1cc(C(=O)N2CCC[C@@H](N)C2)cc2nc(-c3cc4ccc5cc4n3CCCCCCC3(CC3)C(=O)N[C@@H]5C)n(C3CC3)c12 [Example 159] : 7.21

pIC50 reading for C[C@H]1NC(=O)[C@@H]2C[C@H]2CCCCCn2c(-c3nc4cc(C(=O)N[C@H]5CNCC[C@@H]5F)c(F)cc4n3C)cc3ccc1nc32 [Example 242] : 7.51

pIC50 reading for C[C@H]1NC(=O)[C@@H]2C[C@@]2(F)CCCCCn2c(-c3nc4cc(C(=O)N5C[C@H](N)[C@@H]6CC[C@H]5C6)cc(F)c4n3C)cc3ccc1nc32 [Example 717] : 7.96

---

- tested-on: human PAD4 (Homo sapiens, UniProt Q9UM07)
- Construct: human PAD4 (NM_012387), A2-P663, was PCR amplified; His-SUMO (N, cleaved yes); made in house; host or cells: E. coli BL21(DE3)
- Sequence (Q9UM07 2-663): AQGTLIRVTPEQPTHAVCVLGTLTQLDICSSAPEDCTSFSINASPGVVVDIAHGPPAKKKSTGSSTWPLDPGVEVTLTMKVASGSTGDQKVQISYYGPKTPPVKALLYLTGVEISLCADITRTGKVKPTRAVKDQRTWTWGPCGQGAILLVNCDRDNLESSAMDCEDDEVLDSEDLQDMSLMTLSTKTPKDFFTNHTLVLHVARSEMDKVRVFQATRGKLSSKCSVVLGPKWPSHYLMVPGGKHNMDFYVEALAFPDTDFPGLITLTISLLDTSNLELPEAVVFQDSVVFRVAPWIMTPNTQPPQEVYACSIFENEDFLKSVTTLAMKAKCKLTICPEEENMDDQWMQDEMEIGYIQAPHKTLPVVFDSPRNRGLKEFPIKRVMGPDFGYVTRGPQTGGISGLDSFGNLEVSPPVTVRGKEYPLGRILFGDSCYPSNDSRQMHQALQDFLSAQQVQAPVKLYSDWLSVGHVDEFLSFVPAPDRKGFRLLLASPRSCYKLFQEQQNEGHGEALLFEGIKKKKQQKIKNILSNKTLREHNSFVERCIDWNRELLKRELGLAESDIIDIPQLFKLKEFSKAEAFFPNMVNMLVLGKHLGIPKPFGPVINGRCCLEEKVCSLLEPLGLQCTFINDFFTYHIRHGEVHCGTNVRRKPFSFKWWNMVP
- assay-info: In vitro PAD4 BAEE biochemical assay
- protocol-conditions: BAEE substrate 3 mM, 5 nM PAD4, 2 mM calcium chloride; geometric mean of multiple experiments
Please respond with reported IC50 for every item in the list.
Report the figure in nM without appending any unit label.

IC50 reading for COc1cc(C(=O)N2[C@H]3CC[C@@H]2[C@H](N)C3)cc2nc(-c3cc4ccc5nc4n3CCCCCC(C)(C)C(=O)N[C@@H]5C)c(C)n12 [Example 126] : 25

IC50 reading for C[C@H]1NC(=O)C(C)(C)CCCCCn2c(-c3nc4cc(C(=O)N[C@H]5CNCC[C@@H]5F)c(F)cc4n3C3CC3)cc3ccc1nc32 [Example 515] : 74

IC50 reading for C[C@H]1NC(=O)[C@@H]2[C@@H](CCCCCn3c(-c4nc5cc(C(=O)N[C@H]6CNCC[C@@H]6F)c(F)cc5n4C)cc4ccc1nc43)C2(F)F (single isomer, unassigned) [Example 382] : 108

IC50 reading for COc1cc(C(=O)N2C[C@H](N)[C@@H]3CC[C@H]2C3)cc2nc(-c3cc4ccc5nc4n3CCCCC[C@]3(F)C[C@H]3C(=O)N[C@@H]5C)n(C3CC3)c12 [Example 816] : 19

IC50 reading for COc1cc(C(=O)N2C[C@H](N)C[C@@H](F)C2)cc2nc(-c3cc4ccc5nc4n3CCCCCCC(C)(C)C(=O)N[C@@H]5C)n(C)c12 [Example 193] : 66

---

Please respond with reported IC50 for every item in the list.
- tested-on: human PAD4 (Homo sapiens)
- Construct: human PAD4 (NM_012387), A2-P663, was PCR amplified; His-SUMO (N, cleaved yes)
- assay-info: In vitro PAD4 BAEE biochemical assay
- protocol-conditions: BAEE substrate 3 mM, 5 nM PAD4, 2 mM calcium chloride; geometric mean of multiple experiments
- Description: In Vitro PAD4 BAEE Biochemical Assay The enzymatic activity of human PAD4 was monitored in a biochemical assay in the presence or absence of compounds using the small peptidyl arginine mimic BAEE (Na-Benzoyl-L-arginine ethyl ester hydrochloride) as substrate. PAD4 activity led to deimination of BAEE and release of ammonia. Levels of ammonia were monitored by using an amine coupling reaction and were indicative of PAD4 enzymatic activity. […]
Report the figure in nM without appending any unit label.

IC50 reading for COc1cc(C(=O)N2[C@H]3CC[C@@H]2[C@H](N)C3)cc2nc(-c3cc4ccc5nc4n3CCCCCCNc3ncccc3-5)n(C)c12 [Example 96] : 3130

IC50 reading for C[C@H]1NC(=O)C2(CCCCCCn3c(-c4nc5cc(C(=O)N[C@H]6CNCC[C@@H]6F)c(F)cc5n4C4CC4)cc4ccc1nc43)COC2 [Example 603] : 44

IC50 reading for COc1cc(C(=O)N2CC[C@@H](CO)[C@@H](N)C2)cc2nc(-c3cc4ccc5nc4n3CCCCCCC(C)(C)C(=O)N[C@@H]5C)n(C)c12 [Example 533] : 398

IC50 reading for C[C@@H]1[C@H](N)CCCN1C(=O)c1cc(F)c2c(c1)nc(-c1cc3ccc4nc3n1CCCCCc1nc3ccccc3cc1C(=O)N[C@@H]4C)n2C1CC1 [Example 830] : 19

IC50 reading for C[C@H]1NC(=O)c2ccc(Cl)nc2CCCCCn2c(-c3nc4cc(C(=O)N5C[C@H](N)[C@@H]6CC[C@H]5C6)cc(F)c4n3[C@@H]3C[C@@H]3F)cc3ccc1nc32 [Example 452] : 37

IC50 reading for COc1cc(C(=O)N2CC[C@@H](OC)[C@@H](N)C2)cc2nc(-c3cc4ccc5nc4n3CCCCC[C@@H]3C[C@H]3C(=O)NC53CC3)n(C)c12 [Example 787] : 94

IC50 reading for C[C@H]1NC(=O)c2ccc(Cl)nc2CCCCCn2c(-c3nc4cc(C(=O)N5C[C@H](N)[C@@H]6CC[C@H]5C6)cc(OC(F)(F)F)c4n3C)cc3ccc1nc32 [Example 714] : 40

IC50 reading for CO[C@@H]1CCN(C(=O)c2cc(F)c3c(c2)nc(-c2cc4ccc5nc4n2CCCCCc2nc4ccccc4cc2C(=O)N[C@@H]5C)n3C2CC2)C[C@@H]1N [Example 829] : 15

IC50 reading for COc1cc(C(=O)N2[C@H]3CC[C@@H]2[C@H](N)C3)cc2nc(-c3cc4ccc5nc4n3C[C@H]3C[C@H]3CC[C@@H]3C[C@H]3C(=O)N[C@@H]5C)n(C)c12 [Example 142] : 28

IC50 reading for CO[C@@H]1CCN(C(=O)c2cc(F)c3c(c2)nc(-c2cc4ccc5nc4n2CCCCCc2nc4ccccc4nc2C(=O)N[C@@H]5C)n3C2CC2)C[C@@H]1N [Example 828] : 24

IC50 reading for COc1cc(C(=O)N[C@H]2CNCC[C@@H]2O)cc2nc(-c3cc4ccc5nc4n3CCCCCCC(C)(C)C(=O)N[C@@H]5C)n(C)c12 [Example 244] : 2580

IC50 reading for COc1cc(C(=O)N2CCC[C@@H](N)C2)cc2nc(-c3cc4ccc5nc4n3CCCCCCNC(=O)CO5)c(C)n12 [Example 293] : 548

---

Please respond with reported pIC50 for every item in the list.
- tested-on: human PAD4 (Homo sapiens)
- Construct: human PAD4 (NM_012387), A2-P663, was PCR amplified; His-SUMO (N, cleaved yes); made in house; host or cells: E. coli BL21(DE3)
- assay-info: In vitro PAD4 BAEE biochemical assay
- protocol-conditions: BAEE substrate 3 mM, 5 nM PAD4, 2 mM calcium chloride; geometric mean of multiple experiments
The value called pIC50 is obtained by taking minus log10 of the concentration in mol/L.

pIC50 reading for C[C@H]1NC(=O)[C@](F)(c2ccccn2)CCCCCCn2c(-c3nc4cc(C(=O)N5C[C@H](N)[C@@H]6CC[C@H]5C6)cc(F)c4n3C3CC3)cc3ccc1nc32 : 7.54

pIC50 reading for COc1cc(C(=O)N2CC[C@@H](OC(F)F)[C@@H](N)C2)cc2nc(-c3cc4ccc5nc4n3CCCCCC[C@](C)(C(F)(F)F)C(=O)N[C@@H]5C)n(C)c12 : 6.87

pIC50 reading for C[C@H]1NC(=O)C(C)(C)CCCCCCn2c(-c3nc4cc(C(=O)N5C[C@H](N)C[C@@H](F)C5)c(F)cc4n3C3CC3)cc3ccc1nc32 : 6.82

pIC50 reading for C[C@H]1NC(=O)c2ccc(Cl)nc2CCCCCn2c(-c3nc4cc(C(=O)N5C[C@H](N)[C@@H]6CC[C@H]5C6)cc(F)c4n3[C@@H]3C[C@H]3F)cc3ccc1nc32 : 7.36

pIC50 reading for C[C@H]1NC(=O)c2ccc(Cl)nc2CC[C@@H]2C[C@H]2Cn2c(-c3nc4cc(C(=O)N5C[C@H](N)[C@@H]6CC[C@H]5C6)cc(F)c4n3C3CC3)cc3ccc1nc32 : 7.47
